Reported Phospho-SMAD3 Human Skeletal Muscle GDF8 (AlphaLisa, primary human myotubes) by item:
# System: Human ACVR2A (on cells) (human, UniProt P27037 20-513)
# Sequence (P27037 20-513): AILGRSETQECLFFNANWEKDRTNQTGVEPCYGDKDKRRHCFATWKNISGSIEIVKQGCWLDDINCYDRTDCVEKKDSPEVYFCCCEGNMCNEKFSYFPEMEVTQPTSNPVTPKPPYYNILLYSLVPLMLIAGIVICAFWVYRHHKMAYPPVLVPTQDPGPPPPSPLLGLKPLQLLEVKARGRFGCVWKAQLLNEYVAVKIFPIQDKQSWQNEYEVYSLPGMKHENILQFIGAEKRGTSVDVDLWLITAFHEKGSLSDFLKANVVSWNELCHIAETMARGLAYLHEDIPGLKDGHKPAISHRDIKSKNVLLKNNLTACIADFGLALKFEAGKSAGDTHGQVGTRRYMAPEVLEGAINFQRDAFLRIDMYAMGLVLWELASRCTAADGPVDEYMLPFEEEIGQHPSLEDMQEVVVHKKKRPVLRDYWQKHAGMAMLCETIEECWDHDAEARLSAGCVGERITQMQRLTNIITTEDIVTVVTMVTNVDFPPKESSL
# Assay Overview: cell-based or functional assay
Value Kind: Phospho-SMAD3 Human Skeletal Muscle GDF8 (AlphaLisa, primary human myotubes)

373_B08 (antibody, V domains shown) VH: EVQLLESGGGLVQPGGSLRLSCAASGFTFDSYSMNWVRQAPGKGLEWVANINYNSGYKGYADSVKGRFTISRDNSKNTLYLQMNSLRAEDTAVYYCARSATWHDTHLDYWGQGTLVTVSS VL: DIQMTQSPSSLSASVGDRVTITCRASQSILTYLNWYQQKPGKAPKLVIYAATSLASGVPSRFSGSGSGTDFTLTISSLQPEDFATYYCQQSYENPLTFGGGTKVEIK: 0.0102
374_C11 (antibody, V domains shown) VH: EVQLLESGGGLVQPGGSLRLSCAASGFTFSSYSMNWVRQAPGKGLEWVAGINYNSGYKGYADSVKGRFTISRDNSKNTLYLQMNSLRAEDTAVYYCARSATWHDTHLDYWGQGTLVTVSS VL: DIQMTQSPSSLSASVGDRVTITCRASQSILTYLNWYQQKPGKAPKLLIYAATSRASGVPSRFSGSGSGTDFTLTISSLQPEDFATYYCQQSYESPLTFGGGTKVEIK: 0.0266
374_A11 (antibody, V domains shown) VH: EVQLLESGGGLVQPGGSLRLSCAASGFTFSDYSMNWVRQAPGKGLEWVANINYNSGYKGYADSVKGRFTISRDNSKNTLYLQMNSLRAEDTAVYYCARSATWHDTHLDYWGQGTLVTVSS VL: DIQMTQSPSSLSASVGDRVTITCRASQSILSYVNWYQQKPGKAPKLVIYAATSRASGVPSRFSGSGSGTDFTLTISSLQPEDFATYYCQQSYSSPLTFGGGTKVEIK: 0.0086
376_A06 (antibody, V domains shown) VH: EVQLLESGGGLVQPGGSLRLSCAASGFTFDSYSMNWVRQAPGKGLEWVSGINYNSGYTSYADSVKGRFTISRDNSKNTLYLQMNSLRAEDTAVYYCARSATWHDTALDYWGQGTLVTVSS VL: DIQMTQSPSSLSASVGDRVTITCRASQSILSYLNWYQQKPGKAPKLVIYYVSNRASGVPSRFSGSGSGTDFTLTISSLQPEDFATYYCQQSYDNPLTFGGGTKVEIK: 0.0043
375_G07 (antibody, V domains shown) VH: EVQLLESGGGLVQPGGSLRLSCAASGFTFDSYSMNWVRQAPGKGLEWVAGINYNSGYTSYADSVKGRFTISRDNSKNTLYLQMNSLRAEDTAVYYCARSATWHDTHLDYWGQGTLVTVSS VL: DIQMTQSPSSLSASVGDRVTITCRASQSILSYLNWYQQKPGKAPKLVIYAATSLASGVPSRFSGSGSGTDFTLTISSLQPEDFATYYCQQSYDLPLTFGGGTKVEIK: 0.0112
374_C05 (antibody, V domains shown) VH: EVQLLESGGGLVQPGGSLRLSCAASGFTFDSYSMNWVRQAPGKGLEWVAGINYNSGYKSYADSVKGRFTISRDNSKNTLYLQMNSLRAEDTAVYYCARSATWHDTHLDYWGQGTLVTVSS VL: DIQMTQSPSSLSASVGDRVTITCRASQSIIRYLNWYQQKPGKAPKLVIYAATSRASGVPSRFSGSGSGTDFTLTISSLQPEDFATYYCQQSYDNPLTFGGGTKVEIK: 0.0124
365_D05 (antibody, V domains shown) VH: EVQLLESGGGLVQPGGSLRLSCAASGFTFDSYSMNWVRQAPGKGLEWVAGINYNGGYTSYADSVKGRFTISRDNSKNTLYLQMNSLRAEDTAVYYCARSATWHDTHLDYWGQGTLVTVSS VL: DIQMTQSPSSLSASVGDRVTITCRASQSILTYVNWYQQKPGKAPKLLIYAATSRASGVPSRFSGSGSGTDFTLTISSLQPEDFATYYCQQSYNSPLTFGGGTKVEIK: 0.0209
365_F07 (antibody, V domains shown) VH: EVQLLESGGGLVQPGGSLRLSCAASGFTFSSYSMNWVRQAPGKGLEWVSNINYNGGYKSYADSVKGRFTISRDNSKNTLYLQMNSLRAEDTAVYYCARSATWHDTALDYWGQGTLVTVSS VL: DIQMTQSPSSLSASVGDRVTITCRASQSILSYVNWYQQKPGKAPKLVIYAATSRASGVPSRFSGSGSGTDFTLTISSLQPEDFATYYCQQSYDLPLTFGGGTKVEIK: 0.011
369_G07 (antibody, V domains shown) VH: EVQLLESGGGLVQPGGSLRLSCAASGFTFSSYSMNWVRQAPGKGLEWVAGINYNGGYTSYADSVKGRFTISRDNSKNTLYLQMNSLRAEDTAVYYCARSATWHDTHLDYWGQGTLVTVSS VL: DIQMTQSPSSLSASVGDRVTITCRASQSILTYVNWYQQKPGKAPKLVIYAATSRASGVPSRFSGSGSGTDFTLTISSLQPEDFATYYCQQSYDNPLTFGGGTKVEIK: 0.012
369_A10 (antibody, V domains shown) VH: EVQLLESGGGLVQPGGSLRLSCAASGFTFDSYSMNWVRQAPGKGLEWVAGINYNSGYTGYADSVKGRFTISRDNSKNTLYLQMNSLRAEDTAVYYCARSATWHDTHLDYWGQGTLVTVSS VL: DIQMTQSPSSLSASVGDRVTITCRASQSILSYLNWYQQKPGKAPKLLIYAATSRASGVPSRFSGSGSGTDFTLTISSLQPEDFATYYCQQSYELPLTFGGGTKVEIK: 0.0076
